# measurement target: AR protein (Homo sapiens)
# Construct: endogenous in cells; host or cells: VCaP
# procedure details: AR protein degradation in VCaP cells, Western blotting
# Type: cell-based
# conditions used: 100 nM, 24 hr treatment
experimental readout: percent AR protein degradation at 0.1 µM

Kindly note the recorded percent AR protein degradation at 0.1 µM for CN(c1ccc(C#N)c(Cl)c1)[C@H]1CC[C@H](NC(=O)c2ccc(N3CCC(CN4Cc5cc6c(cc5C4)C(=O)N(C4CCC(=O)NC4=O)C6=O)CC3)nn2)CC1 (some centres unmarked) [compound 325] , which is > 90%

The recorded percent AR protein degradation at 0.1 µM for N#Cc1ccc(O[C@H]2CC[C@H](NC(=O)c3ccc4c(c3)CCN(C(=O)CN3Cc5cc6c(cc5C3)C(=O)N(C3CCC(=O)NC3=O)C6=O)CC4)CC2)cc1Cl (some centres unmarked) [compound 25] is > 90%

// sample N#Cc1ccc(O[C@H]2CC[C@H](Nc3ccc(C(=O)N4CCC(N5Cc6cc7c(cc6C5)C(=O)N(C5CCC(=O)NC5=O)C7=O)CC4)cc3)CC2)cc1Cl (some centres unmarked) [compound 10] , its percent AR protein degradation at 0.1 µM was 50 to 90%

Measured percent AR protein degradation at 0.1 µM of N#Cc1ccc(N2CC[C@H]3C[C@H](NC(=O)c4ccc(N5CCC(CN6Cc7cc8c(cc7C6)C(=O)N(C6CCC(=O)NC6=O)C8=O)CC5)cc4)CC[C@H]32)cc1Cl (some centres unmarked) [compound 26] : 50 to 90%

Lookup result for N#Cc1ccc(OC2CC3(CC(NC(=O)c4ccc(N5CCC(CN6Cc7cc8c(cc7C6)C(=O)N(C6CCC(=O)NC6=O)C8=O)CC5)cc4)C3)C2)cc1Cl (centres unmarked) [compound 124] ; measured percent AR protein degradation at 0.1 µM: 50 to 90%

Measured percent AR protein degradation at 0.1 µM of CN(c1ccc(C#N)c(Cl)c1)C1CCC(NC(=O)c2ccc(N3CCC(N4Cc5cc6c(cc5C4)C(=O)N(C4CCC(=O)NC4=O)C6=O)CC3)cc2)CC1 (centres unmarked) [compound 19] : > 90%

percent AR protein degradation at 0.1 µM reading for N#Cc1ccc(O[C@H]2CC[C@H](NC(=O)c3ccc4c(c3)CCN(CC(=O)N3CCc5cc6c(cc5C3)C(=O)N(C3CCC(=O)NC3=O)C6=O)CC4)CC2)cc1Cl (some centres unmarked) [compound 29] : > 90%

// field: percent AR protein degradation at 0.1 µM; key: N#Cc1ccc(OC2CC3(CCC(NC(=O)c4ccc(N5CCC(CN6Cc7cc8c(cc7C6)C(=O)N(C6CCC(=O)NC6=O)C8=O)CC5)cc4)CC3)C2)cc1Cl (centres unmarked) [compound 126] ; value = 10 to 50%

Sample N#Cc1ccc(N[C@H]2CC[C@H](NC(=O)c3ccc(N4CCC(N5Cc6cc7c(cc6C5)C(=O)N(C5CCC(=O)NC5=O)C7=O)CC4)cc3)CC2)cc1Cl (some centres unmarked) [compound 17] ; percent AR protein degradation at 0.1 µM observed: > 90%

Lab note: N#Cc1ccc(O[C@H]2CC[C@H](NC(=O)c3ccc(N4CCC(CN5Cc6cc7c(cc6C5)C(=O)N(C5CCC(=O)NC5=O)C7=O)CC4)cc3)CC2)cc1Cl (some centres unmarked) [compound 8] gave percent AR protein degradation at 0.1 µM of > 90%

Measured percent AR protein degradation at 0.1 µM, CC1(C)C(Nc2ccc(C(=O)N3CCC(CN4Cc5cc6c(cc5C4)C(=O)N(C4CCC(=O)NC4=O)C6=O)CC3)cc2)C(C)(C)C1Oc1ccc(C#N)c(Cl)c1 (centres unmarked) [compound 175] : 50 to 90%

====

# measurement target: AR protein (Homo sapiens, UniProt P10275)
# Construct: endogenous in cells; host or cells: VCaP
# Sequence (P10275 1-920): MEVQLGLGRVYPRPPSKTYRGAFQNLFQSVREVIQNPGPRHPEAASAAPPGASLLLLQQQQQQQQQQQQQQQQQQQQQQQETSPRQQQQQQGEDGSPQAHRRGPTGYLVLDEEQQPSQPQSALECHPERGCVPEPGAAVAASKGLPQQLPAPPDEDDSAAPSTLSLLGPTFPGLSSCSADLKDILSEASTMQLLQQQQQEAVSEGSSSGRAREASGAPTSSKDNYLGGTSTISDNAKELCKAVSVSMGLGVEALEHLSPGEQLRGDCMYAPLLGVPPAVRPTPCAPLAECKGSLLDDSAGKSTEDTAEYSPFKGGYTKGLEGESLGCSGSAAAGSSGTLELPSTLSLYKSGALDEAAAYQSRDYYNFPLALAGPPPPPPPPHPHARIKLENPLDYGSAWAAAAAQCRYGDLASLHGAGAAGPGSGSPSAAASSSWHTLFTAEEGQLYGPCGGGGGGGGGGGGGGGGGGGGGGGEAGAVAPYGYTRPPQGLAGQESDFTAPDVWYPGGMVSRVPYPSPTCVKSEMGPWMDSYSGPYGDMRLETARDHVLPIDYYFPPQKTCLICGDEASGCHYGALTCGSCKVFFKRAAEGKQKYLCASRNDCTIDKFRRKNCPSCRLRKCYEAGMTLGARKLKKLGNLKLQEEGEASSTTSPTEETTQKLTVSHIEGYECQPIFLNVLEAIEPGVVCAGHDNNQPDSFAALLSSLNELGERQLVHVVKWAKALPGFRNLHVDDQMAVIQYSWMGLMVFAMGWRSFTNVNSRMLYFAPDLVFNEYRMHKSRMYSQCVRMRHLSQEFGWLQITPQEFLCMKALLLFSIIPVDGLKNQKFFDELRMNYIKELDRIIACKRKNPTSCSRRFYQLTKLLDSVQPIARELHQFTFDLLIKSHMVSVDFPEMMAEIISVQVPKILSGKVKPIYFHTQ
# procedure details: AR protein degradation in VCaP cells, Western blotting
# Type: cell-based
# conditions used: 10 nM, 24 hr treatment
experimental readout: percent AR protein degradation at 0.01 µM

Value (percent AR protein degradation at 0.01 µM, AR protein (Homo sapiens, UniProt P10275)) for record C[C@H]1CCN(c2ccc(C(=O)N3CCC(CN4Cc5cc6c(cc5C4)C(=O)N(C4CCC(=O)NC4=O)C6=O)CC3)cc2)CCN1c1ccc(C#N)c(Cl)c1 (some centres unmarked) = 50 to 90%

Per the reported AR protein (Homo sapiens, UniProt P10275) data, CC1(C)C(Nc2ccc(C(=O)N3CCC(N4Cc5cc6c(cc5C4)C(=O)N(C4CCC(=O)NC4=O)C6=O)CC3)cc2)C(C)(C)C1Oc1ccc(C#N)c(Cl)c1 (centres unmarked) has percent AR protein degradation at 0.01 µM of 10 to 50%

Observed percent AR protein degradation at 0.01 µM on AR protein (Homo sapiens, UniProt P10275), entry CN(c1ccc(C#N)c(Cl)c1)C1CCC(NC(=O)c2ccc(N3CCC(N4Cc5cc6c(cc5C4)C(=O)N(C4CCC(=O)NC4=O)C6=O)CC3)cc2)CC1 (centres unmarked) , equals > 90%

Field percent AR protein degradation at 0.01 µM (system: AR protein (Homo sapiens, UniProt P10275)) for entry CC1(C)[C@H](Oc2ccc(C#N)c(Cl)c2)C(C)(C)[C@H]1N1Cc2cc(C(=O)N3CCC(CN4Cc5cc6c(cc5C4)C(=O)N(C4CCC(=O)NC4=O)C6=O)CC3)ccc2C1=O (some centres unmarked) = 10 to 50%

Log: AR protein (Homo sapiens, UniProt P10275), compound CC1(C)C(Nc2ccc(C(=O)N3CCC(CN4Cc5cc6c(cc5C4)C(=O)N(C4CCC(=O)NC4=O)C6=O)CC3)cc2)C(C)(C)C1Oc1ccc(C#N)c(Cl)c1 (centres unmarked) , percent AR protein degradation at 0.01 µM = 10 to 50%

The recorded percent AR protein degradation at 0.01 µM with AR protein (Homo sapiens, UniProt P10275) for N#Cc1ccc(N[C@H]2CC[C@H](NC(=O)c3ccc(N4CC(CN5Cc6cc7c(cc6C5)C(=O)N(C5CCC(=O)NC5=O)C7=O)C4)cc3)CC2)cc1Cl (some centres unmarked) was 50 to 90%

Short answer on AR protein (Homo sapiens, UniProt P10275) for CN(c1ccc(C#N)c(Cl)c1)[C@H]1CC[C@H](NC(=O)c2ccc(N3CCC(CN4Cc5cc6c(cc5C4)C(=O)N(C4CCC(=O)NC4=O)C6=O)CC3)cn2)CC1 (some centres unmarked) , percent AR protein degradation at 0.01 µM: > 90%

The compound CC1(C)[C@H](Oc2ccc(C#N)c(Cl)c2)C(C)(C)[C@H]1N1Cc2cc(C(=O)N3CCC(N4Cc5cc6c(cc5C4)C(=O)N(C4CCC(=O)NC4=O)C6=O)CC3)ccc2C1=O (some centres unmarked) , when measured on AR protein (Homo sapiens, UniProt P10275), yielded percent AR protein degradation at 0.01 µM of 10 to 50%

Entry N#Cc1ccc(O[C@H]2CC[C@H](NC(=O)c3ccc4c(c3)CCN(C(=O)CN3Cc5cc6c(cc5C3)C(=O)N(C3CCC(=O)NC3=O)C6=O)CC4)CC2)cc1Cl (some centres unmarked) , tested on AR protein (Homo sapiens, UniProt P10275), has a reported percent AR protein degradation at 0.01 µM of > 90%

Short answer on AR protein (Homo sapiens, UniProt P10275) for CN(c1ccc(C#N)c(Cl)c1)[C@H]1CC[C@H](NC(=O)c2ccc(C3CCN(CC(=O)N4Cc5cc6c(cc5C4)C(=O)N(C4CCC(=O)NC4=O)C6)CC3)cc2)CC1 (some centres unmarked) , percent AR protein degradation at 0.01 µM: > 90%

Here C[C@H]1CCN(c2ccc(C(=O)N3CCC(N4Cc5cc6c(cc5C4)C(=O)N(C4CCC(=O)NC4=O)C6=O)CC3)cc2)CCN1c1ccc(C#N)c(Cl)c1 (some centres unmarked) was tested on AR protein (Homo sapiens, UniProt P10275), and its percent AR protein degradation at 0.01 µM came to 50 to 90%

The compound N#Cc1ccc(O[C@H]2CC[C@H](N3Cc4cc(C(=O)N5CCC(N6Cc7cc8c(cc7C6)C(=O)N(C6CCC(=O)NC6=O)C8=O)CC5)ccc4C3=O)CC2)cc1Cl (some centres unmarked) , when measured on AR protein (Homo sapiens, UniProt P10275), yielded percent AR protein degradation at 0.01 µM of 10 to 50%

Observed percent AR protein degradation at 0.01 µM, AR protein (Homo sapiens, UniProt P10275), N#Cc1ccc(N2CC[C@H]3C[C@H](NC(=O)c4ccc(N5CCC(CN6Cc7cc8c(cc7C6)C(=O)N(C6CCC(=O)NC6=O)C8=O)CC5)cc4)CC[C@H]32)cc1Cl (some centres unmarked) : 10 to 50%

percent AR protein degradation at 0.01 µM of N#Cc1ccc(O[C@H]2CC[C@H](NC(=O)c3ccc4c(c3)CCN(CC(=O)N3Cc5cc6c(cc5C3)C(=O)N(C3CCC(=O)NC3=O)C6=O)C4)CC2)cc1Cl (some centres unmarked) , assay on AR protein (Homo sapiens, UniProt P10275), is 50 to 90%

The reported percent AR protein degradation at 0.01 µM value, AR protein (Homo sapiens, UniProt P10275), for CN(c1ccc(C#N)c(Cl)c1)[C@H]1CC[C@H](NC(=O)c2ccc(CN3CCC(N4Cc5cc6c(cc5C4)C(=O)N(C4CCC(=O)NC4=O)C6=O)CC3)cc2)CC1 (some centres unmarked) reads > 90%

The reported percent AR protein degradation at 0.01 µM value, AR protein (Homo sapiens, UniProt P10275), for CC1(C)[C@H](Oc2ccc(C#N)c(Cl)c2)C(C)(C)[C@H]1N1Cc2cc(C(=O)N3CCC(CCN4Cc5cc6c(cc5C4)C(=O)N(C4CCC(=O)NC4=O)C6=O)CC3)ccc2C1=O (some centres unmarked) reads 50 to 90%

Entry C[C@H]1C[C@@H](NC(=O)c2ccc(N3CCC(CN4Cc5cc6c(cc5C4)C(=O)N(C4CCC(=O)NC4=O)C6=O)CC3)cc2)CC[C@@H]1Oc1ccc(C#N)c(Cl)c1 (some centres unmarked) ; assay system AR protein (Homo sapiens, UniProt P10275); percent AR protein degradation at 0.01 µM recorded at > 90%

Tested on AR protein (Homo sapiens, UniProt P10275): N#Cc1ccc(O[C@H]2CC[C@H](NC(=O)c3ccc4c(c3)CCN(C(=O)CN3Cc5cc6c(cc5C3)C(=O)N(C3CCC(=O)NC3=O)C6=O)C4)CC2)cc1Cl (some centres unmarked) . Observed percent AR protein degradation at 0.01 µM: > 90%

Entry CN(c1ccc(C#N)c(Cl)c1)[C@H]1CC[C@H](NC(=O)c2ccc(N3CCC(CN4Cc5cc6c(cc5C4)C(=O)N(C4CCC(=O)NC4=O)C6=O)CC3)nn2)CC1 (some centres unmarked) under AR protein (Homo sapiens, UniProt P10275) had percent AR protein degradation at 0.01 µM of > 90%

Bench note, AR protein (Homo sapiens, UniProt P10275): N#Cc1ccc(N[C@H]2CC[C@H](NC(=O)c3ccc(N4CCC(CN5Cc6cc7c(cc6C5)C(=O)N(C5CCC(=O)NC5=O)C7=O)CC4)cc3)CC2)cc1Cl (some centres unmarked) , percent AR protein degradation at 0.01 µM reads 50 to 90%
